- System name: hNTS2 receptor (Homo sapiens, UniProt O95665)
- Construct: membranes prepared from them
- Sequence (O95665 whole entry): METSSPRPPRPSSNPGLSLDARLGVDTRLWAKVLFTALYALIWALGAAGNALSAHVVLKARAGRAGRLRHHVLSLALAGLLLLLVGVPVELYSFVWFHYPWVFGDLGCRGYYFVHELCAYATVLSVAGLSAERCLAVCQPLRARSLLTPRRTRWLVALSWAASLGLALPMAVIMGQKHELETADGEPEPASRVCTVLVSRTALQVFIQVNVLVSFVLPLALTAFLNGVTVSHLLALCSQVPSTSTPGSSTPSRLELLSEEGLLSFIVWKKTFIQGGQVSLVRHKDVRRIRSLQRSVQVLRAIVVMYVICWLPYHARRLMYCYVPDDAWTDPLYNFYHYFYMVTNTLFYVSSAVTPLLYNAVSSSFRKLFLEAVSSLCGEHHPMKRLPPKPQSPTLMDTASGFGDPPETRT
- Experimental protocol: Competitive radioligand binding assay on the hNTS2 receptor
- Recorded conditions: IC50 NTS2, displacement of 125I-[Tyr3]-NT, membranes of 1321N1 cells expressing hNTS2
pIC50: −log10 of the molar value. *1 amine or outer side, *2 acyl side, *3 side chain or, on linkers, in order; H or OH if unused. Where a SMILES comes first, the peptide text is derived from it. Bridges are numbered along the chain shown (N, C = ends). [ ]: non-standard residue; d: D form. ξ: configuration not given here. Ala(9-anthryl) = N[C@@H](Cc1c2ccccc2cc2ccccc12)C(=O)O; ξαMeNle(6-ylidene) = CC(CCCC=[*:3])(N[*:1])C(=O)[*:2]; Bpa = N[C@@H](Cc1ccc(C(=O)c2ccccc2)cc1)C(=O)O; Phe(4-Br) = N[C@@H](Cc1ccc(Br)cc1)C(=O)O; Ala(cPent) = N[C@@H](CC1CCCC1)C(=O)O; AllylGly = C=CC[C@H](N)C(=O)O
A collection of compounds and their measured pIC50
Result type: pIC50

* CC(C)C[C@H](NC(=O)[C@H](Cc1ccc(C(=O)c2ccccc2)cc1)NC(=O)[C@@H]1CC=CC[C@H](N)C(=O)N[C@@H](CCCCN)C(=O)N[C@@H](CCCCN)C(=O)N1)C(=O)O [compound 160, c[G(All)KKG(All)]F (benzoyl)L] (H-[AllylGly]KK[AllylGly][Bpa]L-OH; staple 1-4) | 6.94
* CC(C)C[C@H](NC(=O)[C@H](Cc1ccc(O)cc1)NC(=O)[C@@H]1CC=CC[C@H](N)C(=O)N[C@@H](CCCCN)C(=O)N[C@@H](CCCCN)C(=O)N1)C(=O)O [compound 34, c[G(All)KKG(All)]YL] (H-[AllylGly]KK[AllylGly]YL-OH; staple 1-4) | 7.22
* CC1(C(=O)N[C@@H](Cc2ccc(Br)cc2)C(=O)N[C@@H](CC2CCCC2)C(=O)O)CCCC=CC[C@H](N)C(=O)N[C@@H](CCCCN)C(=O)N[C@@H](CCCCN)C(=O)N1 (stereo partly drawn) [compound 133] (H-[AllylGly]KK[ξαMeNle(6-ylidene)][Phe(4-Br)][Ala(cPent)]-OH; staple 1-4) | 8.52
* CC(C)C[C@H](NC(=O)[C@H](Cc1ccc(Br)cc1)NC(=O)[C@@H]1CC=CC[C@H](N)C(=O)N[C@@H](CCCCN)C(=O)N[C@@H](CCCCN)C(=O)N1)C(=O)O [compound 116, c[G(All)KKG(All)]F(4-bromo)L] (H-[AllylGly]KK[AllylGly][Phe(4-Br)]L-OH; staple 1-4) | 7.81
* CC(C)C[C@H](NC(=O)[C@H](Cc1c2ccccc2cc2ccccc12)NC(=O)[C@@H]1CC=CC[C@H](N)C(=O)N[C@@H](CCCCN)C(=O)N[C@@H](CCCCN)C(=O)N1)C(=O)O [compound 162, c[G(All)KKG(All)]A(anthryl-) L] (H-[AllylGly]KK[AllylGly][Ala(9-anthryl)]L-OH; staple 1-4) | 7.72
* CC1(C(=O)N[C@@H](Cc2ccc(O)cc2)C(=O)N[C@@H](CC2CCCC2)C(=O)O)CCCC=CC[C@H](N)C(=O)N[C@@H](CCCCN)C(=O)N[C@@H](CCCCN)C(=O)N1 (stereo partly drawn) [compound 128] (H-[AllylGly]KK[ξαMeNle(6-ylidene)]Y[Ala(cPent)]-OH; staple 1-4) | 8.11

Data origin: patent US12358948B2
